biological target: UniProtKB P42866; test: Antagonist activity at mouse MOR expressed in CHO cell membranes assessed as inhibition of DAMGO-stimulated [35S]GTPgammaS binding after 90 mins relative to DAMGO; type: functional
reported-endpoint: Emax (%)
Provide the reading as a plain figure in %.

Some entries whose results are on file:
- O=C(N[C@@H]1CC[C@@]2(O)[C@H]3Cc4ccc(O)c5c4[C@@]2(CCN3CC2CC2)[C@H]1O5)c1ccncc1-c1ccccc1: 44.4
- O=C(O)c1cnccc1C(=O)N[C@@H]1CC[C@@]2(O)[C@H]3Cc4ccc(O)c5c4[C@@]2(CCN3CC2CC2)[C@H]1O5: 29.3

Now examine the next entry.
Q: Form field: reported Emax of `O=C(N[C@@H]1CC[C@@]2(O)[C@H]3Cc4ccc(O)c5c4[C@@]2(CCN3CC2CC2)[C@H]1O5)c1ccncc1[N+](=O)[O-]`
Ans: 39.1

----------
molecular target: UniProtKB P42866
reported-endpoint: pKi
Scale explanation: pKi corresponds to minus log10 of a concentration expressed in moles per litre.

* O=C(O)c1cnccc1C(=O)N[C@@H]1CC[C@@]2(O)[C@H]3Cc4ccc(O)c5c4[C@@]2(CCN3CC2CC2)[C@H]1O5 | 9.12

Q: Form field: reported pKi of `O=C(N[C@@H]1CC[C@@]2(O)[C@H]3Cc4ccc(O)c5c4[C@@]2(CCN3CC2CC2)[C@H]1O5)c1ccncc1C(F)(F)F`
Ans: 9.37

----------
molecular target: Delta-type opioid receptor (Mus musculus); test: Displacement of [3H]-diprenorphine from mouse DOR expressed in CHO cell membranes by competitive radioligand binding assay
reported-endpoint: pKi
Scale explanation: pKi corresponds to minus log10 of a concentration expressed in moles per litre.

Some entries whose results are on file:
* O=C(N[C@@H]1CC[C@@]2(O)[C@H]3Cc4ccc(O)c5c4[C@@]2(CCN3CC2CC2)[C@H]1O5)c1ccncc1F | 6.80
* CCc1cnccc1C(=O)N[C@@H]1CC[C@@]2(O)[C@H]3Cc4ccc(O)c5c4[C@@]2(CCN3CC2CC2)[C@H]1O5 | 7.37
* O=C(N[C@@H]1CC[C@@]2(O)[C@H]3Cc4ccc(O)c5c4[C@@]2(CCN3CC2CC2)[C@H]1O5)c1ccncc1C1CCCCCC1 | 7.82
* CC(C)Cc1cnccc1C(=O)N[C@@H]1CC[C@@]2(O)[C@H]3Cc4ccc(O)c5c4[C@@]2(CCN3CC2CC2)[C@H]1O5 | 6.83

Q: Form entry - test system: Delta-type opioid receptor (Mus musculus); read-out: pKi; compound: `COC(=O)c1cnccc1C(=O)N[C@@H]1CC[C@@]2(O)[C@H]3Cc4ccc(O)c5c4[C@@]2(CCN3CC2CC2)[C@H]1O5`
Ans: 6.86

----------
biological target: Mu-type opioid receptor (Mus musculus, UniProt P42866); assay: Antagonist activity at mouse MOR expressed in CHO cell membranes assessed as inhibition of DAMGO-stimulated [35S]GTPgammaS binding after 90 mins; type: functional
reported-endpoint: EC50 (nM)
Provide the reading as a plain figure in nM.

• O=C(N[C@@H]1CC[C@@]2(O)[C@H]3Cc4ccc(O)c5c4[C@@]2(CCN3CC2CC2)[C@H]1O5)c1ccncc1C(F)(F)F = 1.38

Now examine the next entry.
Q: Form field: reported EC50 of `O=C(O)c1cnccc1C(=O)N[C@@H]1CC[C@@]2(O)[C@H]3Cc4ccc(O)c5c4[C@@]2(CCN3CC2CC2)[C@H]1O5`
Ans: 1.83

----------
target: Delta-type opioid receptor (Mus musculus, UniProt P32300); experiment: Displacement of [3H]-diprenorphine from mouse DOR expressed in CHO cell membranes by competitive radioligand binding assay
reported-endpoint: Ki (nM)
Provide the reading as a plain figure in nM.

- O=C(N[C@@H]1CC[C@@]2(O)[C@H]3Cc4ccc(O)c5c4[C@@]2(CCN3CC2CC2)[C@H]1O5)c1ccncc1-c1ccccc1: 44.8
- N#Cc1cnccc1C(=O)N[C@@H]1CC[C@@]2(O)[C@H]3Cc4ccc(O)c5c4[C@@]2(CCN3CC2CC2)[C@H]1O5: 46.3
- O=C(N[C@@H]1CC[C@@]2(O)[C@H]3Cc4ccc(O)c5c4[C@@]2(CCN3CC2CC2)[C@H]1O5)c1ccncc1C(F)(F)F: 61.8

Q: Form field: reported Ki of `O=C(N[C@@H]1CC[C@@]2(O)[C@H]3Cc4ccc(O)c5c4[C@@]2(CCN3CC2CC2)[C@H]1O5)c1ccncc1C1CCCCC1`
Ans: 11.2

Q: # iterate: `O=C(N[C@@H]1CC[C@@]2(O)[C@H]3Cc4ccc(O)c5c4[C@@]2(CCN3CC2CC2)[C@H]1O5)c1ccncc1C1CCCC1`
Ans: 34

Q: # iterate: `O=C(O)c1cnccc1C(=O)N[C@@H]1CC[C@@]2(O)[C@H]3Cc4ccc(O)c5c4[C@@]2(CCN3CC2CC2)[C@H]1O5`
Ans: 55.6

Q: # iterate: `O=C(N[C@@H]1CC[C@@]2(O)[C@H]3Cc4ccc(O)c5c4[C@@]2(CCN3CC2CC2)[C@H]1O5)c1ccncc1[N+](=O)[O-]`
Ans: 95.6

----------
target: Mu-type opioid receptor (Mus musculus) (UniProt P42866); test: Antagonist activity at mouse MOR expressed in CHO cell membranes assessed as inhibition of DAMGO-stimulated [35S]GTPgammaS binding after 90 mins relative to DAMGO; assay type: functional
Entries and their Emax
Provide the reading as a plain figure in %.

* CC(C)Cc1cnccc1C(=O)N[C@@H]1CC[C@@]2(O)[C@H]3Cc4ccc(O)c5c4[C@@]2(CCN3CC2CC2)[C@H]1O5 | 27.3

Q: Form field: reported Emax of `O=C(N[C@@H]1CC[C@@]2(O)[C@H]3Cc4ccc(O)c5c4[C@@]2(CCN3CC2CC2)[C@H]1O5)c1ccncc1C(F)(F)F`
Ans: 31.9

Q: # iterate: `CCc1cnccc1C(=O)N[C@@H]1CC[C@@]2(O)[C@H]3Cc4ccc(O)c5c4[C@@]2(CCN3CC2CC2)[C@H]1O5`
Ans: 41.6

Q: # iterate: `COC(=O)c1cnccc1C(=O)N[C@@H]1CC[C@@]2(O)[C@H]3Cc4ccc(O)c5c4[C@@]2(CCN3CC2CC2)[C@H]1O5`
Ans: 29.2

----------
Kappa-type opioid receptor (Mus musculus, UniProt P33534) Ki data
Provide the reading as a plain figure in nM.

* O=C(N[C@@H]1CC[C@@]2(O)[C@H]3Cc4ccc(O)c5c4[C@@]2(CCN3CC2CC2)[C@H]1O5)c1ccncc1C1CCCCC1 | 3.32
* CCc1cnccc1C(=O)N[C@@H]1CC[C@@]2(O)[C@H]3Cc4ccc(O)c5c4[C@@]2(CCN3CC2CC2)[C@H]1O5 | 9.18
* O=C(N[C@@H]1CC[C@@]2(O)[C@H]3Cc4ccc(O)c5c4[C@@]2(CCN3CC2CC2)[C@H]1O5)c1ccncc1F | 4.8
* O=C(N[C@@H]1CC[C@@]2(O)[C@H]3Cc4ccc(O)c5c4[C@@]2(CCN3CC2CC2)[C@H]1O5)c1ccncc1C1CCCC1 | 8.16

Q: Form field: reported Ki of `O=C(O)c1cnccc1C(=O)N[C@@H]1CC[C@@]2(O)[C@H]3Cc4ccc(O)c5c4[C@@]2(CCN3CC2CC2)[C@H]1O5`
Ans: 2.43

Q: # iterate: `O=C(N[C@@H]1CC[C@@]2(O)[C@H]3Cc4ccc(O)c5c4[C@@]2(CCN3CC2CC2)[C@H]1O5)c1ccncc1-c1ccccc1`
Ans: 3.42

Q: # iterate: `O=C(N[C@@H]1CC[C@@]2(O)[C@H]3Cc4ccc(O)c5c4[C@@]2(CCN3CC2CC2)[C@H]1O5)c1ccncc1C1CCCCCC1`
Ans: 5.16

Q: # iterate: `O=C(N[C@@H]1CC[C@@]2(O)[C@H]3Cc4ccc(O)c5c4[C@@]2(CCN3CC2CC2)[C@H]1O5)c1ccncc1C(F)(F)F`
Ans: 12.5

Q: # iterate: `O=C(N[C@@H]1CC[C@@]2(O)[C@H]3Cc4ccc(O)c5c4[C@@]2(CCN3CC2CC2)[C@H]1O5)c1ccncc1[N+](=O)[O-]`
Ans: 4.46

Q: # iterate: `CC(C)Cc1cnccc1C(=O)N[C@@H]1CC[C@@]2(O)[C@H]3Cc4ccc(O)c5c4[C@@]2(CCN3CC2CC2)[C@H]1O5`
Ans: 75.6

Q: # iterate: `COC(=O)c1cnccc1C(=O)N[C@@H]1CC[C@@]2(O)[C@H]3Cc4ccc(O)c5c4[C@@]2(CCN3CC2CC2)[C@H]1O5`
Ans: 11.7

Q: # iterate: `N#Cc1cnccc1C(=O)N[C@@H]1CC[C@@]2(O)[C@H]3Cc4ccc(O)c5c4[C@@]2(CCN3CC2CC2)[C@H]1O5`
Ans: 2.74

----------
target: Mu-type opioid receptor (Mus musculus) (UniProt P42866); test: Antagonist activity at mouse MOR expressed in CHO cell membranes assessed as inhibition of DAMGO-stimulated [35S]GTPgammaS binding after 90 mins relative to DAMGO; format: functional
reported-endpoint: Emax (%)
Provide the reading as a plain figure in %.

* O=C(N[C@@H]1CC[C@@]2(O)[C@H]3Cc4ccc(O)c5c4[C@@]2(CCN3CC2CC2)[C@H]1O5)c1ccncc1C1CCCCCC1 | 48.3
* O=C(N[C@@H]1CC[C@@]2(O)[C@H]3Cc4ccc(O)c5c4[C@@]2(CCN3CC2CC2)[C@H]1O5)c1ccncc1C1CCCCC1 | 51.6

Now examine the next entry.
Q: Form field: reported Emax of `N#Cc1cnccc1C(=O)N[C@@H]1CC[C@@]2(O)[C@H]3Cc4ccc(O)c5c4[C@@]2(CCN3CC2CC2)[C@H]1O5`
Ans: 26.1

Source listed as ChEMBL document CHEMBL4330119.
